- EXPERIMENT: Half life period was determined; 6-7
- Assay type: ADME
- PARTICULARS: human
QUANTITY MEASURED: half-life (h)
Numbers only, in h.

Value of half-life reported for the compound CC(=O)c1cc(C)cc(C)c1NC(=O)c1sccc1S(=O)(=O)Nc1onc(C)c1C is 7

* * *

Assign Selectivity to each entry below.
- SYSTEM: Endothelin-1 receptor (Homo sapiens)
- EXPERIMENT: Selectivity towards endothelin A receptor in human.

CCCS(=O)(=O)c1cc(C)cc(C)c1NC(=O)c1sccc1S(=O)(=O)Nc1onc(C)c1Cl = 6100
Cc1cc2c(cc1CC(=O)c1sccc1S(=O)(=O)Nc1onc(C)c1Cl)OCO2 = 6500
Cc1cc(-c2ncco2)cc(C)c1NC(=O)c1sccc1S(=O)(=O)Nc1onc(C)c1Cl = 1900
Cc1cc(C)c(NC(=O)c2sccc2S(=O)(=O)Nc2onc(C)c2Cl)c(C#N)c1C = 608000
CC(=O)c1c(C)c(C)cc(C)c1NC(=O)c1sccc1S(=O)(=O)Nc1onc(C)c1Cl = 1.18e+06

List Selectivity for every entry below, keeping the order given.
1. Cc1cc(C)c(NC(=O)c2sccc2S(=O)(=O)Nc2onc(C)c2Cl)c(C(=O)N(C)CC(C)(C)C)c1
2. CC(=O)c1cc(C)cc(C)c1NC(=O)c1sc(C)cc1S(=O)(=O)Nc1onc(C)c1Cl
3. Cc1cc(C)c(NC(=O)c2sccc2S(=O)(=O)Nc2onc(C)c2Cl)c(-c2ccccc2)c1
4. CC(=O)c1cc(C)cc(C)c1NC(=O)c1sccc1S(=O)(=O)Nc1onc(C)c1C

stdout:
1: 15900; 2: 4500; 3: 1900; 4: 441000

* * *

- SYSTEM: Endothelin-1 receptor (Homo sapiens)
- EXPERIMENT: Selectivity towards endothelin A receptor in human.
Give measured Selectivity for each item. Keep answers brief.
Answers are plain numbers.

C/C(=N\O)c1cc(C)cc(C)c1NC(=O)c1sccc1S(=O)(=O)Nc1onc(C)c1Cl = 24500
CO/N=C(\C)c1cc(C)cc(C)c1NC(=O)c1sccc1S(=O)(=O)Nc1onc(C)c1Cl = 56000
CCC(=O)c1c(C)c(C)cc(C)c1NC(=O)c1sccc1S(=O)(=O)Nc1onc(C)c1Cl = 216000
Cc1cc(C)c(NC(=O)c2sccc2S(=O)(=O)Nc2onc(C)c2Cl)c(C(=O)O)c1 = 600
Cc1cc(C)c(NC(=O)c2sccc2S(=O)(=O)Nc2onc(C)c2Cl)c(Cl)c1 = 166000
Cc1cc(C)c(NC(=O)c2sccc2S(=O)(=O)Nc2onc(C)c2Cl)c(C(=O)C2CCCCC2)c1 = 13000
Cc1cc(C)c(NC(=O)c2sccc2S(=O)(=O)Nc2onc(C)c2Cl)c(C(=O)N(C)C)c1 = 12300
Cc1cc(C)c(NC(=O)c2sccc2S(=O)(=O)Nc2onc(C)c2Cl)c(S(C)(=O)=O)c1 = 325000

In plain terms, CCC(=O)c1cc(C)cc(C)c1NC(=O)c1sccc1S(=O)(=O)Nc1onc(C)c1Cl has a documented Selectivity of 214000

* * *

Please provide measured half-life for the entries that follow.
- EXPERIMENT: Half life period was determined
- Assay type: ADME, organism-based
- PARTICULARS: rat, in vivo
Give bare numbers, in h.

Cc1cc(C)c(NC(=O)c2sccc2S(=O)(=O)Nc2onc(C)c2C)c(C#N)c1C = 5.3
C/C(=N\O)c1cc(C)cc(C)c1NC(=O)c1sccc1S(=O)(=O)Nc1onc(C)c1Cl = 5.2
Cc1cc(C)c(NC(=O)c2sccc2S(=O)(=O)Nc2onc(C)c2Cl)c(Cl)c1 = 2.6
CC(=O)c1cc(C)cc(C)c1NC(=O)c1sc(C)cc1S(=O)(=O)Nc1onc(C)c1Cl = 2.7
CC(=O)c1c(C)c(C)cc(C)c1NC(=O)c1sccc1S(=O)(=O)Nc1onc(C)c1Cl = 1.68
CC(=O)c1cc(C)cc(C)c1NC(=O)c1sccc1S(=O)(=O)Nc1onc(C)c1C = 5.3

Would you mind giving half-life for every compound in the list below?
1. Cc1cc(C)c(NC(=O)c2sccc2S(=O)(=O)Nc2onc(C)c2Cl)c(C(=O)C2CC2)c1
2. CCC(=O)c1c(C)c(C)cc(C)c1NC(=O)c1sccc1S(=O)(=O)Nc1onc(C)c1Cl
3. Cc1cc(C)c(NC(=O)c2sccc2S(=O)(=O)Nc2onc(C)c2Cl)c(C#N)c1C

stdout:
5.4
1.47
5.11

* * *

- SYSTEM: Endothelin receptor (Rattus norvegicus) (UniProt P26684+P21451)
- Sequence (P21451 whole entry, looked up): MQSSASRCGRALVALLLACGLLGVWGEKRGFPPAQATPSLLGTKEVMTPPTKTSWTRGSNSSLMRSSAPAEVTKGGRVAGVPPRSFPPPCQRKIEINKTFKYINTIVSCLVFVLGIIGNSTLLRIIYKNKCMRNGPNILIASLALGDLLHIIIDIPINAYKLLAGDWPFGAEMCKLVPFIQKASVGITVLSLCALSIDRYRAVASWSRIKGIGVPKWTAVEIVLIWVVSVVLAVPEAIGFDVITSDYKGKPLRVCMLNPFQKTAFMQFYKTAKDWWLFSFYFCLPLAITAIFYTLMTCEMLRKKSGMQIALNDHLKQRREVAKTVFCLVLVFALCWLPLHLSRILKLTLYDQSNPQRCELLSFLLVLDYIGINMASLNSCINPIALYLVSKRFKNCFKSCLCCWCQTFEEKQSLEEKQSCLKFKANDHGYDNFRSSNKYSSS
- Sequence (P26684 whole entry, looked up): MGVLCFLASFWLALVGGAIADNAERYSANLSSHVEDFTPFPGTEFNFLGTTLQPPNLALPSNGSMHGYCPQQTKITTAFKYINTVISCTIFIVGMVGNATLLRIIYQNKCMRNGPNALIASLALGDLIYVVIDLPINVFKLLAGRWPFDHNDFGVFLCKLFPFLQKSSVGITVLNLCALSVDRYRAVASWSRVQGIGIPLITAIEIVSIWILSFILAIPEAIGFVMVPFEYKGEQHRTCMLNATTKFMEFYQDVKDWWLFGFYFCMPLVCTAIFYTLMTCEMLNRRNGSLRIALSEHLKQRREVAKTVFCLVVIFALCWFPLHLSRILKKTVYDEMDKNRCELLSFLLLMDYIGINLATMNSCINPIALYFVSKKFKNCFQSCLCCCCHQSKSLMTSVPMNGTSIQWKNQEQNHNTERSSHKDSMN
- EXPERIMENT: Selectivity for endothelin A receptor over endothelin receptor B
- Format: protein assay
Where a SMILES comes first, the peptide text is derived from it. [ ]: non-standard residue; d: D form. The star is where a group is joined. Piperazinyl(4-Ph) = c1ccc(N2CCN(*)CC2)cc1; dGly(2-thienyl) = N[C@@H](C(=O)O)c1cccs1
Would you mind telling me the reported Selectivity of each entry?
Answers are plain numbers.

Record excerpt, results attached:
COc1ccccc1Oc1c(NS(=O)(=O)c2ccc(C(C)(C)C)cc2)nc(-c2ncccn2)nc1OCCO = 53
COc1cc(OC)nc(O[C@H](C(=O)O)C(OC)(c2ccccc2)c2ccccc2)n1 = 60
CCCCc1ccc2c(n1)[C@@H](c1ccc(OC)cc1C[C@H](C)C(=O)O)[C@H](C(=O)O)[C@H]2c1ccc2c(c1)OCO2 = 3

Respectfully, I request Selectivity for each entry included below.
1. Cc1cc2c(cc1CC(=O)c1sccc1S(=O)(=O)Nc1onc(C)c1Cl)OCO2
2. CC(C)C[C@@H]1NC(=O)[C@@H](c2cccs2)NC(=O)[C@H](CC(=O)[O-])NC(=O)[C@H](CC(=O)N2CCN(c3ccccc3)CC2)NC(=O)[C@@H](CC(=O)[O-])NC(=O)[C@@H](Cc2c[nH]c3ccccc23)NC1=O.[Na+].[Na+] (cyclo(D(Piperazinyl(4-Ph))D[dGly(2-thienyl)]L[dW][dD]))
3. COc1ccccc1Oc1c(NS(=O)(=O)c2ccc(C(C)C)cn2)nc(-c2ccnc(-c3nnn[nH]3)c2)nc1OCCO
4. CC(C)C[C@@H]1NC(=O)[C@@H](C(C)C)NC(=O)[C@@H]2CCCN2C(=O)[C@@H](CC(=O)O)NC(=O)[C@@H](Cc2c[nH]c3ccccc23)NC1=O [BQ-123] (cyclo(L[dW][dD]P[dV]))

stdout:
1. 7000
2. 540
3. 56
4. 818

* * *

- EXPERIMENT: Compound was evaluated for oral bioavailability in dog; 90-100
- Assay type: ADME, organism-based, Canis lupus familiaris
- PARTICULARS: in vivo, read-out: Activity
QUANTITY MEASURED: bioavailability (%)
Answers are plain numbers, in %.

For reference, reported bioavailability for Cc1cc2c(cc1CC(=O)c1sccc1S(=O)(=O)Nc1onc(C)c1Cl)OCO2 stands at 100

* * *

- EXPERIMENT: Compound was evaluated for area under the curve expressed as (h*ug/ml)
- Type: ADME, organism-based
- Design: concentration or dose not given beside the values
- PARTICULARS: rat, in vivo
QUANTITY MEASURED: AUC (µg·h/mL)
One number for each entry, in µg·h/mL.

Fill in AUC for each of the 8 molecules listed.
1. CC(=O)c1cc(C)cc(C)c1NC(=O)c1sccc1S(=O)(=O)Nc1onc(C)c1C
2. Cc1cc(C)c(NC(=O)c2sccc2S(=O)(=O)Nc2onc(C)c2Cl)c(C(=O)C2CC2)c1
3. Cc1cc(C)c(NC(=O)c2sccc2S(=O)(=O)Nc2onc(C)c2C)c(C#N)c1C
4. CC(=O)c1cc(C)cc(C)c1NC(=O)c1sc(C)cc1S(=O)(=O)Nc1onc(C)c1Cl
5. Cc1cc(C)c(NC(=O)c2sccc2S(=O)(=O)Nc2onc(C)c2Cl)c(C(=O)N(C)C)c1
6. Cc1cc(C)c(NC(=O)c2sccc2S(=O)(=O)Nc2onc(C)c2Cl)c(Cl)c1
7. Cc1cc(C)c(NC(=O)c2sccc2S(=O)(=O)Nc2onc(C)c2Cl)c(C#N)c1C
8. Cc1cc(C)c(NC(=O)c2sccc2S(=O)(=O)Nc2onc(C)c2Cl)c(C(=O)c2ccccc2)c1

stdout:
[1310, 365, 667, 327, 27.2, 172, 373, 141]

AUC in this record for Cc1cc(C)c(NC(=O)c2sccc2S(=O)(=O)Nc2onc(C)c2Cl)c(C(=O)CS(C)(=O)=O)c1 : 636

* * *

Protein target, amino acids: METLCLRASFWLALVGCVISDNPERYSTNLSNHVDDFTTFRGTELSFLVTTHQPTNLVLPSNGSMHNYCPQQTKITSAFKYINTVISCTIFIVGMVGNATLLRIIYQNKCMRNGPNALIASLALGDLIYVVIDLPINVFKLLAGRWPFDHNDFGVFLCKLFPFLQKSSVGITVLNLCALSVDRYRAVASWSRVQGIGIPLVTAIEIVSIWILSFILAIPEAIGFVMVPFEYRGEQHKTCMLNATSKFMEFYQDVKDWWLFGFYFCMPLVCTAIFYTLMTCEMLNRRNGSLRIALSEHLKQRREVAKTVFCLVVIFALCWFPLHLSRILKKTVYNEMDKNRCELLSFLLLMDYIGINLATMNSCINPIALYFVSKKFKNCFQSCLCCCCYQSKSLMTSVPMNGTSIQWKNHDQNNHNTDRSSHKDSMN
Label class 1 when IC50 < 0.4 nM; otherwise class 0.

Answered examples (5):
Cc1cc(C)c(NC(=O)c2sccc2S(=O)(=O)Nc2onc(C)c2Cl)c(C(=O)O)c1 = class 0
Cc1cc(C)c(NC(=O)c2sccc2S(=O)(=O)Nc2onc(C)c2Cl)c(S(C)(=O)=O)c1 = class 1
CCC(=O)c1cc(C)cc(C)c1NC(=O)c1sccc1S(=O)(=O)Nc1onc(C)c1Cl = class 1
Cc1cc(C)c(NC(=O)c2sccc2S(=O)(=O)Nc2onc(C)c2Cl)c(C(=O)N(C)CC(C)(C)C)c1 = class 0
CC(=O)c1c(C)c(C)cc(C)c1NC(=O)c1sccc1S(=O)(=O)Nc1onc(C)c1Cl = class 1

stdin: Answer whether the molecule Cc1cc(C)c(NC(=O)c2sccc2S(=O)(=O)Nc2onc(C)c2Cl)c(S(=O)(=O)C(C)C)c1 has IC50 strictly less than 0.4 nM
stdout: class 1

stdin: # TODO verify IC50 < 0.4 nM strictly for this molecule: Cc1cc(-c2ncco2)cc(C)c1NC(=O)c1sccc1S(=O)(=O)Nc1onc(C)c1Cl
stdout: class 0

stdin: # check: IC50 < 0.4 nM for Cc1cc(C)c(NC(=O)c2sccc2S(=O)(=O)Nc2onc(C)c2Cl)c(-c2ccccc2)c1
stdout: class 0
